Experiment: Effect of food on plasma pharmacokinetics after single oral dose of SF2a/b (Example 2)
Type: in vivo, human
Conditions: both sexes, human, plasma, oral, 50 mg, 50 mg SF2a, standardized breakfast; linear mixed effects model (Table 5C); read-out: AUClast, Geometric Mean Treatment I
Protocol: The effect of food on the pharmacokinetics (PK) of Compound (a) was assessed in healthy participants after a single oral dose of SF2a/b, described in Example 1, administered at different dose levels in a randomized single dose, 2-period crossover study. […]
measured.metric: AUC(0-t) (ng·h/mL)
Quick reminder: number only, in ng·h/mL, skip the unit.

Input: Data request, read-out AUC(0-t), for COc1cc(NC(C(=O)c2c[nH]c3ccc(OC(F)(F)F)cc23)c2ccc(Cl)cc2OC)cc(S(C)(=O)=O)c1 (stereo not shown)
Output: 21600

----------
test: Plasma pharmacokinetics with loading dose and weekly or twice weekly maintenance dosing, fed (Example 5); assay type: in vivo, human; settings: human, plasma, oral, Panel III (150 mg BID Days 1-2, then 300 mg Q7D; SF2a/b, fed), Day 24; read-out: Mean AUClast (SD)
measured.metric: AUC(0-t) (µg·h/mL)
Quick reminder: number only, in µg·h/mL, skip the unit.

Input: Data request, read-out AUC(0-t), for COc1cc(NC(C(=O)c2c[nH]c3ccc(OC(F)(F)F)cc23)c2ccc(Cl)cc2OC)cc(S(C)(=O)=O)c1 (stereo not shown)
Output: 299

----------
assay: Plasma pharmacokinetics with loading dose and weekly or twice weekly maintenance dosing, fed (Example 5); assay type: in vivo, human; settings: human, plasma, oral, Panel II (450 mg BID Days 1-2, then 450 mg Q3D/Q4D; SF2a/b, fed), Day 2; read-out: Mean Cmax (SD)
measured.metric: Cmax (ng/mL)
Quick reminder: number only, in ng/mL, skip the unit.

Input: Data request, read-out Cmax, for COc1cc(NC(C(=O)c2c[nH]c3ccc(OC(F)(F)F)cc23)c2ccc(Cl)cc2OC)cc(S(C)(=O)=O)c1 (stereo not shown)
Output: 4640

----------
experiment: Effect of food on plasma pharmacokinetics after single oral dose of SF2a/b (Example 2); format: in vivo, human; settings: both sexes, human, plasma, oral, 200 mg, Treatment F: single 200 mg (SF2b), fasted; read-out: AUC∞, Geo. Mean
measured.metric: AUC(0-inf) (ng·h/mL)
Quick reminder: number only, in ng·h/mL, skip the unit.

Input: Data request, read-out AUC(0-inf), for COc1cc(NC(C(=O)c2c[nH]c3ccc(OC(F)(F)F)cc23)c2ccc(Cl)cc2OC)cc(S(C)(=O)=O)c1 (stereo not shown)
Output: 59600

----------
experiment: Plasma pharmacokinetics with loading dose and weekly or twice weekly maintenance dosing, fed (Example 5); assay type: in vivo, human; conditions: human, plasma, oral, 450 mg, Panel II (450 mg BID Days 1-2, then 450 mg Q3D/Q4D; SF2a/b, fed), Day 20; read-out: Mean Cmax (SD)
measured.metric: Cmax (ng/mL)
Quick reminder: number only, in ng/mL, skip the unit.

Input: Data request, read-out Cmax, for COc1cc(NC(C(=O)c2c[nH]c3ccc(OC(F)(F)F)cc23)c2ccc(Cl)cc2OC)cc(S(C)(=O)=O)c1 (stereo not shown)
Output: 4060

----------
assay: Effect of food on plasma pharmacokinetics after single oral dose of SF2a/b (Example 2); assay type: in vivo, human; conditions: both sexes, human, plasma, oral, 50 mg, 50 mg SF2a, fasted; linear mixed effects model (Table 5C); read-out: AUC∞, Geometric Mean Treatment H
measured.metric: AUC(0-inf) (ng·h/mL)
Quick reminder: number only, in ng·h/mL, skip the unit.

Input: Data request, read-out AUC(0-inf), for COc1cc(NC(C(=O)c2c[nH]c3ccc(OC(F)(F)F)cc23)c2ccc(Cl)cc2OC)cc(S(C)(=O)=O)c1 (stereo not shown) [Compound (a)]
Output: 18700

----------
Experiment: Plasma pharmacokinetics with loading dose and weekly or twice weekly maintenance dosing, fed (Example 5)
Assay type: in vivo, human
Details: human, plasma, oral, Panel I (450 mg BID Days 1-2, then 900 mg Q7D; SF2a/b, fed), Day 24; read-out: Mean Cmax (SD)
Procedure: A pharmaceutical formulation comprising Compound (a) as described in Example 2 (SF2a/b) was administered as an oral dosage form, to healthy adult participants, in a fed state. […]
measured.metric: Cmax
Output should be the measured figure followed by the unit it is expressed in.

Input: Data request, read-out Cmax, for COc1cc(NC(C(=O)c2c[nH]c3ccc(OC(F)(F)F)cc23)c2ccc(Cl)cc2OC)cc(S(C)(=O)=O)c1 (stereo not shown)
Output: 4260 ng/mL

----------
assay: Effect of food on plasma pharmacokinetics after single oral dose of SF2a/b (Example 2); type: in vivo, human; conditions: both sexes, human, plasma, oral, 50 mg, Treatment I: single 50 mg (SF2a), fed, standardized breakfast; read-out: t1/2, term, Geo. Mean (converted)
measured.metric: half-life (h)
Quick reminder: number only, in h, skip the unit.

Input: Data request, read-out half-life, for COc1cc(NC(C(=O)c2c[nH]c3ccc(OC(F)(F)F)cc23)c2ccc(Cl)cc2OC)cc(S(C)(=O)=O)c1 (stereo not shown) [Compound (a)]
Output: 174

----------
assay: Plasma pharmacokinetics with loading dose and weekly or twice weekly maintenance dosing, fed (Example 5); assay type: in vivo, human; conditions: human, plasma, oral, 150 mg, Panel IV (150 mg BID Days 1-2, then 150 mg Q3D/Q4D; SF2a/b, fed), Day 3; read-out: Median tmax (min-max)
measured.metric: Tmax (h)
Quick reminder: number only, in h, skip the unit.

Input: Data request, read-out Tmax, for COc1cc(NC(C(=O)c2c[nH]c3ccc(OC(F)(F)F)cc23)c2ccc(Cl)cc2OC)cc(S(C)(=O)=O)c1 (stereo not shown)
Output: 5

----------
experiment: Effect of food on plasma pharmacokinetics after single oral dose of SF2a/b (Example 2); type: in vivo, human; conditions: both sexes, human, plasma, oral, 200 mg, Treatment G: single 200 mg (SF2b), fed, standardized breakfast; read-out: tmax, Median
measured.metric: Tmax (h)
Quick reminder: number only, in h, skip the unit.

Input: Data request, read-out Tmax, for COc1cc(NC(C(=O)c2c[nH]c3ccc(OC(F)(F)F)cc23)c2ccc(Cl)cc2OC)cc(S(C)(=O)=O)c1 (stereo not shown)
Output: 8

----------
assay: Effect of food on plasma pharmacokinetics after single oral dose of SF2a/b (Example 2); assay type: in vivo, human; conditions: both sexes, human, plasma, oral, 800 mg, Treatment E: single 800 mg (SF2b), fed, standardized breakfast; read-out: Cmax, Median
measured.metric: Cmax (ng/mL)
Quick reminder: number only, in ng/mL, skip the unit.

Input: Data request, read-out Cmax, for COc1cc(NC(C(=O)c2c[nH]c3ccc(OC(F)(F)F)cc23)c2ccc(Cl)cc2OC)cc(S(C)(=O)=O)c1 (stereo not shown)
Output: 3510

----------
assay: Effect of food on plasma pharmacokinetics after single oral dose of SF2a/b (Example 2); assay type: in vivo, human; conditions: both sexes, human, plasma, oral, 800 mg, 800 mg SF2b, fed, high-fat, high-calorie breakfast; read-out: AUC∞, Geometric LS Means Treatment K
measured.metric: AUC(0-inf) (µg·h/mL)
Quick reminder: number only, in µg·h/mL, skip the unit.

Input: Data request, read-out AUC(0-inf), for COc1cc(NC(C(=O)c2c[nH]c3ccc(OC(F)(F)F)cc23)c2ccc(Cl)cc2OC)cc(S(C)(=O)=O)c1 (stereo not shown)
Output: 422

----------
assay: Plasma pharmacokinetics with loading dose and weekly or twice weekly maintenance dosing, fed (Example 5); format: in vivo, human; details: human, plasma, oral, 900 mg, Panel I (450 mg BID Days 1-2, then 900 mg Q7D; SF2a/b, fed), Day 3; read-out: Median tmax (min-max)
measured.metric: Tmax (h)
Quick reminder: number only, in h, skip the unit.

Input: Data request, read-out Tmax, for COc1cc(NC(C(=O)c2c[nH]c3ccc(OC(F)(F)F)cc23)c2ccc(Cl)cc2OC)cc(S(C)(=O)=O)c1 (stereo not shown)
Output: 5

----------
test: Effect of food on plasma pharmacokinetics after single oral dose of SF2a/b (Example 2); format: in vivo, human; conditions: both sexes, human, plasma, oral, 200 mg, 200 mg SF2b, fed, standardized breakfast (Tables 5E, 5G); read-out: AUC∞, Geometric LS Means Treatment G
measured.metric: AUC(0-inf) (µg·h/mL)
Quick reminder: number only, in µg·h/mL, skip the unit.

Input: Data request, read-out AUC(0-inf), for COc1cc(NC(C(=O)c2c[nH]c3ccc(OC(F)(F)F)cc23)c2ccc(Cl)cc2OC)cc(S(C)(=O)=O)c1 (stereo not shown) [Compound (a)]
Output: 103

----------
test: Plasma pharmacokinetics with loading dose and weekly or twice weekly maintenance dosing, fed (Example 5); format: in vivo, human; details: human, plasma, oral, 450 mg, Panel II (450 mg BID Days 1-2, then 450 mg Q3D/Q4D; SF2a/b, fed), Day 6; read-out: Mean Cmax (SD)
measured.metric: Cmax (ng/mL)
Quick reminder: number only, in ng/mL, skip the unit.

Input: Data request, read-out Cmax, for COc1cc(NC(C(=O)c2c[nH]c3ccc(OC(F)(F)F)cc23)c2ccc(Cl)cc2OC)cc(S(C)(=O)=O)c1 (stereo not shown)
Output: 4380
